Listing: pIC50 of selected compounds
Test system: primary murine skeletal myocytes
Test: TAG accumulation in primary murine skeletal myocytes
Type: cell-based
Details: Mus musculus; primary murine skeletal myocytes; read-out: Activity Score (IC50), triacylglyceride (TAG) accumulation
pIC50: −log10 of the molar value.

Here are 7 compounds together with their reported answers.
>>> experimental_value("COc1ccc(-c2csc(NC(=O)c3ccc(NCC(=O)N4CCOCC4)c(OC)c3)n2)cc1")
"> 6.00"
>>> experimental_value("COc1ccccc1-c1csc(NC(=O)c2ccc(OCC(=O)N3CCOCC3)cc2)n1")
"> 6.00"
>>> experimental_value("COc1ccc(-c2csc(NC(=O)c3ccc(OCC(=O)N(C)C)c(OC)c3)n2)cc1")
"5.00 to 6.00"
>>> experimental_value("COC(=O)CNC(=O)COc1ccc(C(=O)Nc2nc(-c3ccc(OC)cc3)cs2)cc1OC")
"< 5.00"
>>> experimental_value("COc1cc(C(=O)Nc2nc(-c3ccc(C#N)cc3)cs2)ccc1O")
"5.00 to 6.00"
>>> experimental_value("COc1cc(C(=O)Nc2nc(-c3ccccc3)cs2)ccc1OCC(=O)N1CCOCC1")
"> 6.00"
>>> experimental_value("COc1ccc(-c2csc(NC(=O)c3ccc(OCC(=O)N4CCOCC4)c(OC)c3)n2)cc1")
"> 6.00"

[Q] So what's the measured pIC50 for this one? CC(C)c1ccc(-c2csc(NC(=O)c3ccc(OCC(=O)N4CCOCC4)cc3)n2)cc1
[A] > 6.00

----------
System: primary murine skeletal myocytes
Assay: TAG accumulation in primary murine skeletal myocytes
Type: cell-based
Conditions: Mus musculus; primary murine skeletal myocytes; read-out: Activity Score (IC50), triacylglyceride (TAG) accumulation
Listing: IC50 of selected compounds

Here are 2 compounds together with their reported answers.
>>> experimental_value("COc1ccc(-c2csc(NC(=O)c3ccc(OCC(N)=O)c(OC)c3)n2)cc1")
"1000 to 10000 nM"
>>> experimental_value("COc1ccc(-c2csc(NC(=O)c3ccc(OCC(=O)N4CCOCC4)cc3)n2)c(Cl)c1")
"< 1000 nM"

[Q] So what's the measured IC50 for this one? CNC(=O)COc1ccc(C(=O)Nc2nc(-c3ccc(OC)cc3Cl)cs2)cc1
[A] < 1000 nM

[Q] Cool, now CCN(CCN(C)C)C(=O)COc1ccc(C(=O)Nc2nc(-c3ccc(OC)cc3)cs2)cc1OC
[A] > 10000 nM

----------
System: human skeletal myotubes
Experiment: Triglyceride accumulation in oleate-loaded human skeletal myotubes
Type: cell-based
Conditions: Myotube, 100 μM oleate 24 hours, read-out: EC50, inhibition of TAG accumulation
Protocol: Human skeletal myotubes were differentiated for 8 days. On day 7, 100 μM of oleic acid complexed to fatty acid-free BSA was added to the cells with the indicated concentration of test compound for 24 hours. […] Triglyceride accumulation was measured using signal intensity at excitation 540/emission 590 nm (Bio-Tek Instruments, Inc.). […] EC50 values were calculated using non-linear regression analysis. […]
Assay readout: EC50

[Q] So what's the measured EC50 for this one? COc1ccc(-c2csc(NC(=O)c3ccc(OCC(=O)N4CCOCC4)c(OC)c3)n2)cc1
[A] ~1000 nM

----------
Tested on: primary murine skeletal myocytes
Assay: TAG accumulation in primary murine skeletal myocytes
Format: cell-based
Details: Mus musculus; primary murine skeletal myocytes; read-out: Activity Score (IC50), triacylglyceride (TAG) accumulation
Assay readout: IC50

Here are 5 compounds together with their reported answers.
>>> experimental_value("COc1cc(C(=O)Nc2nc(-c3ccccc3)c(Cc3ccccc3)s2)ccc1OCC(=O)N1CCOCC1")
"< 1000 nM"
>>> experimental_value("COc1ccc(-c2csc(NC(=O)CCC(=O)N3CCOCC3)n2)cc1")
"1000 to 10000 nM"
>>> experimental_value("COc1ccc(-c2csc(NC(=O)c3ccc(OCC(=O)N4CCOCC4)cc3)n2)c(F)c1")
"< 1000 nM"
>>> experimental_value("COc1cc(C(=O)Nc2nc(-c3ccc(N4CCCC4)cc3)cs2)ccc1OCC(=O)N1CCOCC1")
"< 1000 nM"
>>> experimental_value("COc1ccc(-c2csc(NC(=O)c3ccc(OCC(=O)N4CCOCC4)cn3)n2)cc1")
"> 10000 nM"

[Q] So what's the measured IC50 for this one? COc1ccc(-c2csc(NC(=O)c3ccc(N)c(OC)c3)n2)cc1
[A] 1000 to 10000 nM

[Q] Cool, now COc1cc(C(=O)Nc2nc(-c3ccc(C#N)cc3)cs2)ccc1OCC(=O)N1CCOCC1
[A] < 1000 nM

[Q] Cool, now CC(C)Oc1ccc(-c2csc(NC(=O)c3ccc(OCC(=O)N4CCOCC4)cc3)n2)c(Cl)c1
[A] < 1000 nM

----------
Test system: primary murine skeletal myocytes
Assay: TAG accumulation in primary murine skeletal myocytes
Assay type: cell-based
Details: Mus musculus; primary murine skeletal myocytes; read-out: Activity Score (IC50), triacylglyceride (TAG) accumulation
Assay readout: IC50

>>> experimental_value("COc1ccc(-c2csc(NC(=O)c3ccc(OCC(=O)N4CCN(C)CC4)c(OC)c3)n2)cc1")
"< 1000 nM"
>>> experimental_value("CCOc1ccc(-c2csc(NC(=O)c3ccc(OCC(=O)N4CCOCC4)c(OC)c3)n2)cc1")
"< 1000 nM"
>>> experimental_value("COc1ccc(-c2csc(NC(=O)c3ccc(NCC(=O)N4CCOCC4)cc3)n2)c(Cl)c1")
"< 1000 nM"
>>> experimental_value("CCNC(=O)COc1ccc(C(=O)Nc2nc(-c3ccc(OC)cc3Cl)cs2)cc1")
"< 1000 nM"
>>> experimental_value("COc1cc(C(=O)Nc2nc(-c3ccc(O)cc3)cs2)ccc1OCC(=O)N1CCOCC1")
"< 1000 nM"

[Q] So what's the measured IC50 for this one? COc1ccc(-c2csc(NCc3ccc(OCC(=O)N4CCOCC4)c(OC)c3)n2)cc1
[A] 1000 to 10000 nM

[Q] Cool, now COc1ccc(-c2csc(NC(=O)c3ccc(NCC(=O)N(C)C)cc3)n2)cc1
[A] < 1000 nM

[Q] Cool, now COc1cc(C(=O)Nc2nc(-c3ccc(Cl)cc3)cs2)ccc1O
[A] 1000 to 10000 nM

----------
Listing: IC50 of selected compounds
Tested on: primary murine skeletal myocytes
Test: TAG accumulation in primary murine skeletal myocytes
Format: cell-based
Conditions: Mus musculus; primary murine skeletal myocytes; read-out: Activity Score (IC50), triacylglyceride (TAG) accumulation

>>> experimental_value("O=C(Nc1nc(-c2ccccc2Cl)cs1)c1ccc(OCC(=O)N2CCOCC2)cc1")
"< 1000 nM"

[Q] So what's the measured IC50 for this one? COc1ccc(-c2csc(NC(=O)c3ccc(OCCN4CCOCC4)c(OC)c3)n2)cc1
[A] 1000 to 10000 nM

[Q] Cool, now O=C(Nc1nc(-c2ccccc2)cs1)c1cccc(OCC(=O)N2CCOCC2)c1
[A] 1000 to 10000 nM

[Q] Cool, now CCc1ccc(-c2csc(NC(=O)c3ccc(OCC(=O)N4CCOCC4)cc3)n2)cc1
[A] < 1000 nM

[Q] Cool, now COc1cc(C(=O)Nc2cccc(-c3ccccc3)c2)ccc1OCC(=O)N1CCOCC1
[A] > 10000 nM

----------
Listing: pIC50 of selected compounds
Tested on: primary murine skeletal myocytes
Test: TAG accumulation in primary murine skeletal myocytes
Assay type: cell-based
Details: Mus musculus; primary murine skeletal myocytes; read-out: Activity Score (IC50), triacylglyceride (TAG) accumulation
pIC50: −log10 of the molar value.

>>> experimental_value("COc1ccc(-c2csc(NC(=O)c3ccc(OCC(=O)NCC4CC4)c(OC)c3)n2)cc1 [Cpd. 10]")
"5.00 to 6.00"
>>> experimental_value("COc1cccc(-c2csc(NC(=O)c3ccc(OCC(=O)N4CCOCC4)c(OC)c3)n2)c1 [Cpd. 35]")
"5.00 to 6.00"
>>> experimental_value("COc1ccc(-c2csc(NC(=O)c3ccc(OCC(=O)NCc4ccccc4)c(OC)c3)n2)cc1 [Cpd. 23]")
"5.00 to 6.00"
>>> experimental_value("Cc1ccccc1-c1csc(NC(=O)c2ccc(OCC(=O)N3CCOCC3)cc2)n1 [Cpd. 47]")
"> 6.00"
>>> experimental_value("COc1ccc(-c2csc(NC(=O)C3CCC(OCC(=O)N4CCOCC4)CC3)n2)cc1 (centres unmarked) [Cpd. 97]")
"< 5.00"

[Q] Give primary murine skeletal myocytes pIC50 for O=C(Nc1nc(-c2ccc(F)cc2)cs1)c1ccc(OCC(=O)N2CCOCC2)cc1 [Cpd. 46]
[A] > 6.00

[Q] Cool, now COc1cc(C(=O)Nc2nc(-c3ccc(Cl)c(Cl)c3)cs2)ccc1O [Cpd. 5]
[A] 5.00 to 6.00

[Q] Cool, now COc1ccc(-c2csc(NC(=O)c3ccc(OCC(=O)N(C)C)cc3)n2)c(Cl)c1 [Cpd. 60]
[A] > 6.00
